- Test system: N-formyl peptide receptor 2 (Homo sapiens, UniProt P25090)
- Sequence (P25090 whole entry): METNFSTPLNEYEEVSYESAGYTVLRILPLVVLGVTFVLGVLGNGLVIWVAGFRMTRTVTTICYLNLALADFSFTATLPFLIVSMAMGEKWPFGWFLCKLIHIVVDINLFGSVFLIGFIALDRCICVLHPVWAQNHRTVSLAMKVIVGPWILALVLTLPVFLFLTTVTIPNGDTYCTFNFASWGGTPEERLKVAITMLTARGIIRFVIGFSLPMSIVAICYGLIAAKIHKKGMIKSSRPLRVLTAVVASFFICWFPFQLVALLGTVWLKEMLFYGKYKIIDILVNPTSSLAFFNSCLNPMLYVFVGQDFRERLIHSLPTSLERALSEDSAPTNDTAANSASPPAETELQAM
- Protocol notes: Induction of calcium release in human FPR2 receptor-expressed HEK cell by cytosolic-free calcium assay
- Assay type: functional, cell-based, HEK293
Assay endpoint: EC50

Entry under test: H-SSLSKL-OH . Its EC50 was 7.5 µM

* * *

- Test system: Formyl peptide receptor-related sequence 1 (Mus musculus)
- Sequence (O08790 whole entry): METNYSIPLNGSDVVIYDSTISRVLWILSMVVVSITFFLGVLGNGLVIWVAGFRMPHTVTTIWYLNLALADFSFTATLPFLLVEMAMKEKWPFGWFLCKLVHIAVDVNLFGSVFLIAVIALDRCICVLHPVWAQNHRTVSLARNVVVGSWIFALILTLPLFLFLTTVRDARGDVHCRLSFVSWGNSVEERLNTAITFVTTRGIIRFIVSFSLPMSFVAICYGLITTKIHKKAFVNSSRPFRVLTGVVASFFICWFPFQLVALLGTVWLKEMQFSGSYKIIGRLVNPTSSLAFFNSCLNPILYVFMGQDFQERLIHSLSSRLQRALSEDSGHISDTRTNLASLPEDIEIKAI
- Protocol notes: Induction of calcium release in mouse FPR2 receptor-expressed HEK cell by cytosolic-free calcium assay
- Type: functional, HEK293
Assay endpoint: pEC50
pEC50 is defined as minus the log10 of a concentration measured in mol/L.

Entry under test: H-SSLSKL-OH . Its pEC50 was 5.05
